Listing: inhibition at 10 µM of selected molecules
Assayed System: rat B1R (Rattus norvegicus)
Construct: expressed in transfected cells; host or cells: CHO K1 cells
Sequence (P97583 whole entry): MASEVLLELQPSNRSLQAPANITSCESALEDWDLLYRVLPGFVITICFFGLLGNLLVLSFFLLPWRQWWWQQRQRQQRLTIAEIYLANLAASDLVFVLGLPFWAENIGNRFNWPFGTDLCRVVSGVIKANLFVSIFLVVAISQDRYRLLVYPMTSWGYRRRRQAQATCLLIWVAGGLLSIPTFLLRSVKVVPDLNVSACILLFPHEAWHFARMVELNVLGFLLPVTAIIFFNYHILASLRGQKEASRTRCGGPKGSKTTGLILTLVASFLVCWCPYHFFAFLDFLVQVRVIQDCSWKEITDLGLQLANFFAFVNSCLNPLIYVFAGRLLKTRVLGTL
Measurement Protocol: FLIPR Ca2+ functional study on bradykinin receptor 1 (rB1R CHO K1 cells)
Type: cell-based
Reported Conditions: CHO-K1, % inhibition rat B1R at 10 μM, read-out: % inh. (rat B1R) 10 μM

Molecule	Assayed System	inhibition at 10 µM, %
COc1cc(C)c(S(=O)(=O)N2c3ccccc3C[C@H]2COc2nccc(N(C)CCN3CCC(c4ccccc4)(N(C)C)CC3)n2)c(C)c1	rat B1R (Rattus norvegicus)	102
COc1cc(C)c(S(=O)(=O)N2CCC[C@H]2COc2nccc(N3CCC(c4nc(-c5ccncc5)no4)CC3)n2)c(C)c1	rat B1R (Rattus norvegicus)	101
COc1cc(C)c(S(=O)(=O)N2CCCCC2COc2nccc(N3CCN(C4CCN(C)CC4)CC3)n2)c(C)c1 (stereo not drawn)	rat B1R (Rattus norvegicus)	101
CCCCC1(N(C)C)CCN(CCN(C)c2nccc(OC[C@@H]3Cc4ccccc4N3S(=O)(=O)c3c(C)cc(OC)cc3C)n2)CC1	rat B1R (Rattus norvegicus)	97
COc1cc(C)c(S(=O)(=O)N2CCCCC2COc2nccc(N3CCC(O)(c4cccnc4)CC3)n2)c(C)c1 (stereo not drawn)	rat B1R (Rattus norvegicus)	104
COc1cc(C)c(S(=O)(=O)N2CCC[C@H]2COc2nccc(N3CCn4cc(CN5CCCCC5)nc4C3)n2)c(C)c1	rat B1R (Rattus norvegicus)	98
COc1cc(C)c(S(=O)(=O)N2CCCCC2COc2nccc(N3CCC(c4ccccc4)(N(C)C)CC3)n2)c(C)c1 (stereo not drawn)	rat B1R (Rattus norvegicus)	79
COc1cc(C)c(S(=O)(=O)N2c3ccccc3C[C@H]2COc2ccnc(N(C)CCN3CCC(c4ccccc4)(N(C)C)CC3)n2)c(C)c1	rat B1R (Rattus norvegicus)	98
COc1cc(C)c(S(=O)(=O)N2CCCCC2COc2ccnc(N(C)CCN3CCC(c4ccccc4)(N(C)C)CC3)n2)c(C)c1 (stereo not drawn)	rat B1R (Rattus norvegicus)	102
COc1cc(C)c(S(=O)(=O)N2CCCCC2COc2ccnc(N3CCC(CCCN4CCCC4)(c4cccnc4)CC3)n2)c(C)c1 (stereo not drawn)	rat B1R (Rattus norvegicus)	72
COc1cc(C)c(S(=O)(=O)N2CCCC[C@H]2COc2nccc(N3CCC4(CCN(c5ccncc5)CC4)CC3)n2)c(C)c1	rat B1R (Rattus norvegicus)	101
COc1cc(C)c(S(=O)(=O)N2CCC[C@H]2COc2ccnc(N3CCC(CCN4CCCC4)CC3)n2)c(C)c1	rat B1R (Rattus norvegicus)	85
COc1cc(C)c(S(=O)(=O)N(CCN(C)c2cncc(N3CCC4(CCN(c5ccncc5)CC4)CC3)n2)C2CC2)c(C)c1	rat B1R (Rattus norvegicus)	109
COc1cc(C)c(S(=O)(=O)N2c3ccccc3C[C@H]2COc2ccnc(N(C)CCN3CCC(c4ccccc4)(N4CCCC4)CC3)n2)c(C)c1	rat B1R (Rattus norvegicus)	83
COc1cc(C)c(S(=O)(=O)N2CC(Oc3nccc(N4CCN(CCCN(C)C)CC4)n3)C2)c(C)c1	rat B1R (Rattus norvegicus)	54
COc1cc(C)c(S(=O)(=O)N2CCCCC2COc2nccc(N3CCN(c4ncccn4)CC3)n2)c(C)c1 (stereo not drawn)	rat B1R (Rattus norvegicus)	76
COc1cc(C)c(S(=O)(=O)N2CCCCC2COc2nccc(N3CCC(Oc4ccccn4)CC3)n2)c(C)c1 (stereo not drawn)	rat B1R (Rattus norvegicus)	98
COc1cc(C)c(S(=O)(=O)N2CCC[C@H]2COc2nccc(N3CCC4(CC3)OCc3ccccc34)n2)c(C)c1	rat B1R (Rattus norvegicus)	68
CCCCC1(N(C)C)CCN(CCN(C)c2nccc(OC3CN(S(=O)(=O)c4c(C)cc(OC)cc4C)C3)n2)CC1	rat B1R (Rattus norvegicus)	55
COc1cc(C)c(S(=O)(=O)N2CCCCC2COc2nccc(N(C)CCN3CCC(c4ccccc4)(N(C)C)CC3)n2)c(C)c1 (stereo not drawn)	rat B1R (Rattus norvegicus)	100
CCCCC1(N(C)C)CCN(CCN(C)c2nccc(OCCN(C)S(=O)(=O)c3c(C)cc(OC)cc3C)n2)CC1	rat B1R (Rattus norvegicus)	102
COc1cc(C)c(S(=O)(=O)N(CCOc2nccc(N3CCC4(CCC(Oc5ccncc5)CC4)CC3)n2)C2CC2)c(C)c1	rat B1R (Rattus norvegicus)	99
COc1cc(C)c(S(=O)(=O)N2CCCCC2COc2nccc(N3CCC(Oc4cnccn4)CC3)n2)c(C)c1 (stereo not drawn)	rat B1R (Rattus norvegicus)	98
COc1cc(C)c(S(=O)(=O)N2CCCCC2COc2nccc(N3[C@@H]4CC[C@H]3CC(Oc3cccnc3)C4)n2)c(C)c1 (stereo partly drawn)	rat B1R (Rattus norvegicus)	101
COc1cc(C)c(S(=O)(=O)N2CCC[C@H]2COc2nccc(N3CCC4(CCN(c5ccncc5)CC4)CC3)n2)c(C)c1	rat B1R (Rattus norvegicus)	101
COc1cc(C)c(S(=O)(=O)N(C)CCOc2ccnc(N3CCC(CCN4CCCC4)CC3)n2)c(C)c1	rat B1R (Rattus norvegicus)	99
COc1cc(C)c(S(=O)(=O)N(C)C(COc2nccc(N3CCC(c4cccc(F)c4)(N4CCN(C)CC4)CC3)n2)c2ccccc2)c(C)c1 (stereo not drawn)	rat B1R (Rattus norvegicus)	53
